- System: Escherichia coli TOP10;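 further: peptides expressed intracellularly from a pBAD plasmid library in pooled LB shake-flask culture, induced with 0.3% L-arabinose, DNA abundance read by NGS, three biological replicates, DESeq2 with apeglm shrinkage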
- Measurement description: shrunken log2 fold change of peptide-encoding DNA abundance (4.5 h post-induction vs induction); higher = less antimicrobial activity (less host growth inhibition)
- Applied conditions: time post-induction: 4.5 h; library: site-saturation at positions 5, 18, 19, 20
Overview of reported shrunken log2 fold change across a group of sequences:

{"Construct sequence": "RRIRARPPRLPRPRPRPKCDPRP", "shrunken log2 fold change": 0.39}
{"Construct sequence": "RRIRNRPPRLPRPRPRPIWWPRP", "shrunken log2 fold change": -0.141}
{"Construct sequence": "RRIRNRPPRLPRPRPRPDAAPRP", "shrunken log2 fold change": 0.45}
{"Construct sequence": "RRIRYRPPRLPRPRPRPYVSPRP", "shrunken log2 fold change": -0.0075}
{"Construct sequence": "RRIRMRPPRLPRPRPRPTLAPRP", "shrunken log2 fold change": 1.35}
{"Construct sequence": "RRIRWRPPRLPRPRPRPLCAPRP", "shrunken log2 fold change": 0.776}
{"Construct sequence": "RRIRLRPPRLPRPRPRPQHWPRP", "shrunken log2 fold change": -0.044}
